System: KM20L2 colon
Assay: NCI tumour cell line growth inhibition, 48 h
Readout name: TGI

[[record]]
compound = "COc1cc2cnc3c4cc(OC)c(OC(C)C)cc4ccc3c2cc1OC"
reported_value = "> 100 µM"

[[record]]
compound = "COC(=O)C(C#N)C1NC(=O)c2ccccc21 (stereo unspecified)"
reported_value = "> 100 µM"

[[record]]
compound = "CCOC(OC1=C(C#N)CCCC1)C(CC)[Se]c1ccccc1[N+](=O)[O-] (stereo unspecified)"
reported_value = "31.4 µM"

[[record]]
compound = "FC(F)(F)c1nc(Br)[nH]c1C(F)(F)F"
reported_value = "> 100 µM"

[[record]]
compound = "O=C1CCc2ccc(O)c(c2)Oc2ccc(cc2)[C@@H]2O[C@@H]2CO1"
reported_value = "> 100 µM"

[[record]]
compound = "N#CC1=C(c2ccccc2)OC2(N)OC(c3ccccc3)=C(C#N)C12C#N (stereo unspecified)"
reported_value = "> 100 µM"

